- study.target: human CYP17 (Homo sapiens, UniProt P05093)
- Sequence (P05093 whole entry): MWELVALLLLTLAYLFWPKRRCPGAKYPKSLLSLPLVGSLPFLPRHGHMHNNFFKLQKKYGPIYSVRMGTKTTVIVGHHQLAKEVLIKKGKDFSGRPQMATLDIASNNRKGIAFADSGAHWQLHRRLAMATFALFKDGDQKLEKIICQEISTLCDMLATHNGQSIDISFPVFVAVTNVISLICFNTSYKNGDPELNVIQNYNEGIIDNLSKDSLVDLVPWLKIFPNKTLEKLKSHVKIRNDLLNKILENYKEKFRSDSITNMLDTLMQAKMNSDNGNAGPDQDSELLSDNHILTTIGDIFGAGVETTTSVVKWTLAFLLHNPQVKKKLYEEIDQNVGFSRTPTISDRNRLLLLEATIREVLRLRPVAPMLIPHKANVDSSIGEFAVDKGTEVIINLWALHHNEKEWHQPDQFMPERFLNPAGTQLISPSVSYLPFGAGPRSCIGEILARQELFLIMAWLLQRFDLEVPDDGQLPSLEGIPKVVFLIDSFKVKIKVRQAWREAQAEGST
- method.description: Cell-based human CYP17 inhibition assay, H295R adrenocortical carcinoma cells
- Set-up: H295R Adrenocortical carcinoma cells [NCI-H295A, ATCC Number CRL-2128, American Type Culture Collection; host or cells: H295R adrenocortical carcinoma cells
- condition.set: 16 hours at 37° C., read-out: CYP17 (human H295R adrenal cells)
IC50 listing for selected molecules.
measured.parameter: IC50

1. CC(c1ccc(-c2ccccc2F)cn1)n1ccnc1 (stereo not shown) [Example 40] ... 0.05 to 0.2 µM
2. CCOC(=O)c1ccc(-c2ccc(C(CC)n3ccnc3)nc2)cc1 (stereo not shown) [Example 5] ... 0.05 to 0.2 µM
3. CCC(c1nnc(-c2ccc(F)cc2)s1)n1ccnc1 (stereo not shown) [Example 19] ... 0.05 to 0.2 µM
4. CCC(c1ccc(-c2cccc(O)c2)cn1)n1ccnc1 (stereo not shown) [Example 8] ... < 0.05 µM
